# Species: Rattus norvegicus
# Assay protocol: Open TG-GATES - Regimen: Single
# Type: toxicity, organism-based, Sprague-Dawley
# Set-up: regimen Single, gender Male, age 6 weeks
# Protocol conditions: in vivo, po, 0 mg/kg, 24 h, tissue Plasma, route gavage, dose level Control
Entries and their A/G values follow.
Property name: A/G

Molecule: Nc1nc(N)c2nc(-c3ccccc3)c(N)nc2n1
Property name: A/G
Recorded measurement: 0.9

Molecule: C[C@](N)(Cc1ccc(O)c(O)c1)C(=O)O
Property name: A/G
Recorded measurement: 0.9

Molecule: CN1C(=O)OC(C)(C)C1=O
Property name: A/G
Recorded measurement: 0.9

Molecule: CCSCC[C@H](N)C(=O)O
Property name: A/G
Recorded measurement: 1.5

Molecule: CC(C)C(=O)Nc1ccc([N+](=O)[O-])c(C(F)(F)F)c1 [FLUTAMIDE]
Property name: A/G
Recorded measurement: 1.7

Molecule: CC(C)(S)[C@@H](N)C(=O)O
Property name: A/G
Recorded measurement: 0.9

Molecule: CC(=N)S [THIOACETAMIDE]
Property name: A/G
Recorded measurement: 2.2

Molecule: C[C@]12CCC(=O)C=C1CC[C@@H]1[C@@H]2CC[C@@]2(C)[C@H]1CC[C@]2(C)O
Property name: A/G
Recorded measurement: 0.9

Molecule: CCc1oc2ccccc2c1C(=O)c1cc(I)c(O)c(I)c1
Property name: A/G
Recorded measurement: 2.1

Molecule: O=C(N[C@H](CO)[C@H](O)c1ccc([N+](=O)[O-])cc1)C(Cl)Cl
Property name: A/G
Recorded measurement: 0.9

Molecule: CCN1CCCC1CNC(=O)c1cc(S(N)(=O)=O)ccc1OC (configuration not stated) [SULPIRIDE]
Property name: A/G
Recorded measurement: 0.9

Molecule: CC(=O)Oc1cc(C(C)C)c(OCCN(C)C)cc1C
Property name: A/G
Recorded measurement: 1.2

* * *

Entries and their Plat values follow.
# Species: Rattus norvegicus
# Assay protocol: Open TG-GATES - Regimen: Single
# Format: toxicity, organism-based, Sprague-Dawley
# Parameters: regimen Single, gender Male, age 6 weeks
# Protocol conditions: in vivo, po, 0 mg/kg, 3 h, tissue Blood, route gavage, dose level Control

Molecule: Oc1ncnc2[nH]ncc12 [ALLOPURINOL]
Plat: 111.5 x10_4/uL
--
Molecule: CC(=N)S [THIOACETAMIDE]
Plat: 101.8 x10_4/uL
--
Molecule: C#C[C@]1(O)CC[C@H]2[C@@H]3CCc4cc(O)ccc4[C@H]3CC[C@@]21C [ETHINYL ESTRADIOL]
Plat: 117 x10_4/uL
--
Molecule: Nc1nc(N)c2nc(-c3ccccc3)c(N)nc2n1
Plat: 114.1 x10_4/uL
--
Molecule: O=C(O)c1cccnc1 [NIACIN]
Plat: 118.4 x10_4/uL
--
Molecule: C[C@]12CCC(=O)C=C1CC[C@@H]1[C@@H]2CC[C@@]2(C)[C@H]1CC[C@]2(C)O [METHYLTESTOSTERONE]
Plat: 111.8 x10_4/uL
--
Molecule: O=C(N[C@H](CO)[C@H](O)c1ccc([N+](=O)[O-])cc1)C(Cl)Cl [CHLORAMPHENICOL]
Plat: 115.3 x10_4/uL
--
Molecule: CCc1oc2ccccc2c1C(=O)c1cc(I)c(O)c(I)c1 [BENZIODARONE]
Plat: 114.1 x10_4/uL
--
Molecule: CC(C)(S)[C@@H](N)C(=O)O [PENICILLAMINE]
Plat: 123.9 x10_4/uL
--
Molecule: CCSCC[C@H](N)C(=O)O [ETHIONINE]
Plat: 122 x10_4/uL
--
Molecule: C[C@](N)(Cc1ccc(O)c(O)c1)C(=O)O [METHYLDOPA]
Plat: 118.6 x10_4/uL
--
Molecule: CC(=O)Oc1cc(C(C)C)c(OCCN(C)C)cc1C [MOXISYLYTE]
Plat: 118.3 x10_4/uL
--
Molecule: CC(C)C(=O)Nc1ccc([N+](=O)[O-])c(C(F)(F)F)c1 [FLUTAMIDE]
Plat: 126.5 x10_4/uL
--
Molecule: CCC(C)(C)C(=O)O[C@H]1C[C@@H](C)C=C2C=C[C@H](C)[C@H](CC[C@@H]3C[C@@H](O)CC(=O)O3)[C@H]21 [SIMVASTATIN]
Plat: 101.5 x10_4/uL
--
Molecule: CN1C(=O)OC(C)(C)C1=O [TRIMETHADIONE]
Plat: 125.1 x10_4/uL
--
Molecule: CCN1CCCC1CNC(=O)c1cc(S(N)(=O)=O)ccc1OC (stereo unspecified) [SULPIRIDE]
Plat: 117.7 x10_4/uL

Data origin: ChEMBL document CHEMBL3885861
